- assay-target: T1, MBP-fused PDZ domain 1 of PDZRN4 (human, UniProt Q6ZMN7 224-314)
- T1 sequence (looked up): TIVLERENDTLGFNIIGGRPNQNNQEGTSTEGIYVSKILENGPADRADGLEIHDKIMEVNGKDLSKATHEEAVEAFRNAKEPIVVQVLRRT
- experiment-notes: SPR
Where no end group is shown, it is not given here.
measure: Kd (µM)
Value expressed in µM; do not type the unit.

Give its Kd value. Item: RSSRTRRETQL (not fully specified (N-terminus); also: biotinylated, position not given here) [biotinylated HPV16 E6 peptide] 6

The reported measurements were obtained from paper PMC6424611.
